The origin of these recorded values is patent US11020374B2.

METHOD SUMMARY: One-week stability studies (40° C./75% RH, 80° C., ambient light) by XRPD and HPLC
Format: physicochemical
ASSAY SETUP: one week under ambient light conditions, sealed vial
Structures can show the parent of a compound that is named as a salt.
MEASURED QUANTITY: stability by XRPD

COc1ccc(S(=O)(=O)NCc2cc(CN3CCCC3)c(O)c(CN3CCCC3)c2)cc1 [Example 12, sulcardine hydrochloride]    unchanged
COc1ccc(NS(=O)(=O)c2cc(CN3CCCC3)c(O)c(CN3CCCC3)c2)cc1.O=S(=O)(O)c1cccc2c(S(=O)(=O)O)cccc12 [Example 5]    unchanged
COc1ccc(NS(=O)(=O)c2cc(CN3CCCC3)c(O)c(CN3CCCC3)c2)cc1.COc1ccc(NS(=O)(=O)c2cc(CN3CCCC3)c(O)c(CN3CCCC3)c2)cc1.O=S(=O)(O)CCS(=O)(=O)O [Example 14]    unchanged
